So I've got a bunch of molecules here, and I need their % Helix in water ([Θ]222) values.
- measurement_protocol: Far-UV CD of isolated peptides in aqueous solution (helicity)
- Type: physicochemical
- test_conditions: from molar ellipticity at 222 nm assuming 100% helix = −31500 deg cm^2 dmol^−1; 5 °C, 50 mM phosphate pH 6.8
Please respond with the number in % and leave the unit unwritten.

INPUT: Quick check: % Helix in water ([Θ]222) of CC(=O)N[C@@H](CCC(=O)O)C(=O)N[C@@H](CC(=O)O)C(=O)N[C@@H](Cc1ccccc1)C(=O)N[C@@H](CO)C(=O)N[C@@H](CC(=O)O)C(=O)N[C@@H](CC(C)C)C(=O)N[C@@H](Cc1c[nH]c2ccccc12)C(=O)N[C@@H](CCCCN)C(=O)N[C@@H](CC(C)C)C(=O)N[C@@H](CC(C)C)C(=O)N1CCC[C@H]1C(=O)N[C@@H](CCC(=O)O)C(=O)N[C@@H](CC(N)=O)C(N)=O [P53-D18] ?
OUTPUT: 10.5

INPUT: Quick check: % Helix in water ([Θ]222) of CC(=O)N[C@@H](CCC(=O)O)C(=O)N[C@H](C(=O)N[C@@H](Cc1ccccc1)C(=O)N[C@@H](COP(=O)(O)O)C(=O)N[C@@H](CC(=O)O)C(=O)N[C@@H](CC(C)C)C(=O)N[C@@H](Cc1c[nH]c2ccccc12)C(=O)N[C@@H](CCCCN)C(=O)N[C@@H](CC(C)C)C(=O)N[C@@H](CC(C)C)C(=O)N1CCC[C@H]1C(=O)N[C@@H](CCC(=O)O)C(=O)N[C@@H](CC(N)=O)C(N)=O)[C@@H](C)OP(=O)(O)O [P53-pTpS] ?
OUTPUT: 8.1

INPUT: Quick check: % Helix in water ([Θ]222) of CC(=O)N[C@@H](CCC(=O)O)C(=O)N[C@@H](CC(=O)O)C(=O)N[C@@H](Cc1ccccc1)C(=O)N[C@@H](CCC(=O)O)C(=O)N[C@@H](CC(=O)O)C(=O)N[C@@H](CC(C)C)C(=O)N[C@@H](Cc1c[nH]c2ccccc12)C(=O)N[C@@H](CCCCN)C(=O)N[C@@H](CC(C)C)C(=O)N[C@@H](CC(C)C)C(=O)N1CCC[C@H]1C(=O)N[C@@H](CCC(=O)O)C(=O)N[C@@H](CC(N)=O)C(N)=O [P53-D18-E20] ?
OUTPUT: 11.4
